Assay: Selectivity for rat liver sigma 2 receptor over guinea pig brain sigma 1 receptor
Quantity Measured: Ratio Ki

So what does the record say about Ratio Ki for COc1cc2c(cc1OC)CN(CCCCNC(=O)c1cc(C)ccc1OCCF)CC2 ?
48

P: COc1cc2c(cc1OC)CN(CCNC(=O)c1cc(C)ccc1OCCF)CC2
Q: COc1cc2c(cc1OC)CN(CCCCNC(=O)c1cc(Br)ccc1OCCF)CC2
R: COc1cc2c(cc1OC)CN(CCCCNC(=O)c1cc(Br)cc(OC)c1OCCF)CC2
S: COc1cc2c(cc1OC)CN(CCCCNC(=O)c1cc(I)cc(OC)c1OCCF)CC2
rank_up(items): orders items by reported Ratio Ki in ascending numerical order. Answer format: list of labels, ordered as asked.
R, P, Q, S

====

Test system: EMT6
Assay: Biodistribution in tumor of EMT6 tumor bearing BALB/c mouse 10 to 20 uCi after 30 mins
Assay type: ADME, organism-based
Settings: emt6, 0.5 h
Quantity Measured: Drug uptake (% ID/g)

So what does the record say about Drug uptake for COc1cc2c(cc1OC)CN(CCCCNC(=O)c1cc(I)ccc1OCC[18F])CC2 ?
2.81

So what does the record say about Drug uptake for COc1cc2c(cc1OC)CN(CCCCNC(=O)c1cc(C)ccc1OCC[18F])CC2 ?
2.54

So what does the record say about Drug uptake for COc1cc2c(cc1OC)CN(CCCCNC(=O)c1cc(I)cc(OC)c1OCC[18F])CC2 ?
3.11

So what does the record say about Drug uptake for COc1cc2c(cc1OC)CN(CCCCNC(=O)c1cc(Br)ccc1OCC[18F])CC2 ?
2.59

====

Tested on: Brain
Experiment: Biodistribution in brain of EMT6 tumor bearing BALB/c mouse at 10 to 20 uCi after 5 mins
Assay type: ADME, organism-based
Settings: in vivo
Quantity Measured: Drug uptake (% ID/g)

So what does the record say about Drug uptake for COc1cc2c(cc1OC)CN(CCCCNC(=O)c1cc(I)ccc1OCC[18F])CC2 ?
0.55

So what does the record say about Drug uptake for COc1cc2c(cc1OC)CN(CCCCNC(=O)c1cc(C)ccc1OCC[18F])CC2 ?
0.76

A: COc1cc2c(cc1OC)CN(CCCCNC(=O)c1cc(I)cc(OC)c1OCC[18F])CC2
B: COc1cc2c(cc1OC)CN(CCCCNC(=O)c1cc(Br)ccc1OCC[18F])CC2
Which one would you say has the larger Drug uptake value: A , or B ? Please respond with the label that marks your chosen entry.
B

====

Test system: Heart
Test: Biodistribution in heart of mouse EMT6 tumor bearing BALB/c mouse at 10 to 20 uCi after 30 mins
Type: ADME, organism-based
Conditions: in vivo, 0.5 h
Quantity Measured: Drug uptake (% ID/g)

What reported Drug uptake corresponds to COc1cc2c(cc1OC)CN(CCCCNC(=O)c1cc(Br)ccc1OCC[18F])CC2 on Heart?
1.55

I: COc1cc2c(cc1OC)CN(CCCCNC(=O)c1cc(C)ccc1OCC[18F])CC2
II: COc1cc2c(cc1OC)CN(CCCCNC(=O)c1cc(I)ccc1OCC[18F])CC2
Select the item whose Drug uptake value is smaller, choosing between I and II . Please respond with the label that marks your chosen entry.
I
(I: 1.15 % ID/g, II: 2.37 % ID/g)

====

Tested on: Bone
Experiment: Biodistribution in bone of mouse EMT6 tumor bearing BALB/c mouse at 10 to 20 uCi after 5 mins
Assay type: ADME, organism-based, Bone element
Conditions: in vivo
Quantity Measured: Drug uptake (% ID/g)

So what does the record say about Drug uptake for COc1cc2c(cc1OC)CN(CCCCNC(=O)c1cc(C)ccc1OCC[18F])CC2 ?
2.49

So what does the record say about Drug uptake for COc1cc2c(cc1OC)CN(CCCCNC(=O)c1cc(I)ccc1OCC[18F])CC2 ?
2.59

So what does the record say about Drug uptake for COc1cc2c(cc1OC)CN(CCCCNC(=O)c1cc(I)cc(OC)c1OCC[18F])CC2 ?
2.23

So what does the record say about Drug uptake for COc1cc2c(cc1OC)CN(CCCCNC(=O)c1cc(Br)ccc1OCC[18F])CC2 ?
2.9

====

Assay: Displacement of [3H]DTG from sigma 2 receptor in rat liver membrane after 120 mins
Assay type: cell membranes
Quantity Measured: Ki (nM)

Guide cases for Ki, answers given:
So what does the record say about Ki for COc1cc2c(cc1OC)CN(CCCCNC(=O)c1cc(I)cc(OC)c1OCCF)CC2 ?
0.26

So what does the record say about Ki for COc1cc2c(cc1OC)CN(CCCCNC(=O)c1cc(Br)cc(OC)c1OCCF)CC2 ?
386

a: COc1cc2c(cc1OC)CN(CCNC(=O)c1cc(C)ccc1OCCF)CC2
b: COc1cc2c(cc1OC)CN(CCCCNC(=O)c1cc(I)ccc1OCCF)CC2
c: COc1cc2c(cc1OC)CN(CCCCNC(=O)c1cc(C)ccc1OCCF)CC2
d: COc1cc2c(cc1OC)CN(CCCCNC(=O)c1cc(Br)ccc1OCCF)CC2
rank_up(items): orders items by reported Ki in ascending numerical order. Answer format: list of labels, ordered as asked.
d, b, c, a
(d: 0.65 nM, b: 1.06 nM, c: 6.95 nM, a: 102 nM)

====

Test system: Kidney
Assay: Biodistribution in kidney of mouse EMT6 tumor bearing BALB/c mouse at 10 to 20 uCi after 120 mins
Assay type: ADME, organism-based
Settings: in vivo, 2 h
Quantity Measured: Drug uptake (% ID/g)

Guide cases for Drug uptake, answers given:
So what does the record say about Drug uptake for COc1cc2c(cc1OC)CN(CCCCNC(=O)c1cc(C)ccc1OCC[18F])CC2 ?
0.87

So what does the record say about Drug uptake for COc1cc2c(cc1OC)CN(CCCCNC(=O)c1cc(I)cc(OC)c1OCC[18F])CC2 ?
1.34

I: COc1cc2c(cc1OC)CN(CCCCNC(=O)c1cc(Br)ccc1OCC[18F])CC2
II: COc1cc2c(cc1OC)CN(CCCCNC(=O)c1cc(I)ccc1OCC[18F])CC2
Select the item whose Drug uptake value is smaller, choosing between I and II . Please respond with the label that marks your chosen entry.
I

====

Test system: Adipose tissue
Test: Biodistribution in fat of mouse EMT6 tumor bearing BALB/c mouse at 10 to 20 uCi after 60 mins
Type: ADME, organism-based
Conditions: in vivo, 1 h
Quantity Measured: Drug uptake (% ID/g)

Guide cases for Drug uptake, answers given:
What reported Drug uptake corresponds to COc1cc2c(cc1OC)CN(CCCCNC(=O)c1cc(Br)ccc1OCC[18F])CC2 on Adipose tissue?
0.38

What reported Drug uptake corresponds to COc1cc2c(cc1OC)CN(CCCCNC(=O)c1cc(I)cc(OC)c1OCC[18F])CC2 on Adipose tissue?
0.47

I: COc1cc2c(cc1OC)CN(CCCCNC(=O)c1cc(I)ccc1OCC[18F])CC2
II: COc1cc2c(cc1OC)CN(CCCCNC(=O)c1cc(C)ccc1OCC[18F])CC2
Select the item whose Drug uptake value is smaller, choosing between I and II . Please respond with the label that marks your chosen entry.
II

====

Test system: Brain
Test: Biodistribution in brain of EMT6 tumor bearing BALB/c mouse at 10 to 20 uCi after 60 mins
Assay type: ADME, organism-based
Settings: in vivo, 1 h
Quantity Measured: Drug uptake (% ID/g)

P: COc1cc2c(cc1OC)CN(CCCCNC(=O)c1cc(I)cc(OC)c1OCC[18F])CC2
Q: COc1cc2c(cc1OC)CN(CCCCNC(=O)c1cc(Br)ccc1OCC[18F])CC2
Select the item whose Drug uptake value is smaller, choosing between P and Q . Please respond with the label that marks your chosen entry.
P
(P: 0.14 % ID/g, Q: 0.32 % ID/g)

P: COc1cc2c(cc1OC)CN(CCCCNC(=O)c1cc(C)ccc1OCC[18F])CC2
Q: COc1cc2c(cc1OC)CN(CCCCNC(=O)c1cc(I)ccc1OCC[18F])CC2
Which one would you say has the larger Drug uptake value: P , or Q ? Please respond with the label that marks your chosen entry.
Q

====

Test system: Adipose tissue
Experiment: Biodistribution in fat of mouse EMT6 tumor bearing BALB/c mouse at 10 to 20 uCi after 30 mins
Format: ADME, organism-based
Conditions: in vivo, 0.5 h
Quantity Measured: Drug uptake (% ID/g)

Guide cases for Drug uptake, answers given:
So what does the record say about Drug uptake for COc1cc2c(cc1OC)CN(CCCCNC(=O)c1cc(I)ccc1OCC[18F])CC2 ?
1.04

So what does the record say about Drug uptake for COc1cc2c(cc1OC)CN(CCCCNC(=O)c1cc(Br)ccc1OCC[18F])CC2 ?
0.96

a: COc1cc2c(cc1OC)CN(CCCCNC(=O)c1cc(I)cc(OC)c1OCC[18F])CC2
b: COc1cc2c(cc1OC)CN(CCCCNC(=O)c1cc(C)ccc1OCC[18F])CC2
Which one would you say has the larger Drug uptake value: a , or b ? Please respond with the label that marks your chosen entry.
a
